biological target: T1, transforming growth factor-beta 1 (TGF-β1) (UniProt P01137 279-390); experiment: ELISA, peptide on streptavidin plate, ligand 100 ng/ml
T1 construct: also called TGFb1; TGFB1
T1 sequence (P01137 279-390 limits assumed): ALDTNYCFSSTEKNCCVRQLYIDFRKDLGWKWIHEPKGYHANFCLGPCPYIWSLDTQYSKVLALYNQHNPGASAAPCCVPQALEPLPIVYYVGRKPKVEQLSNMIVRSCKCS
Ends that are not written are not given here.
Field 'label' (enum: Condition met / Condition not met). Set to Condition met when ELISA OD450 is strictly under 0.02 OD450; else Condition not met.

Sample answers from the record:
[[record]]
binder = "SDGCYEHFAELDIPQSVQQNG (also: biotinylated, site not given here) [CLPTM1 peptide fragment of SEQ ID NO: 15]"
answer_label = "Condition met"

[[record]]
binder = "RIFIIWAISSWFRRGPAPQDG (also: biotinylated, site not given here) [CLPTM1 peptide fragment of SEQ ID NO: 11]"
answer_label = "Condition met"

[[record]]
binder = "SALFWEQHDLVYGDWTSGENG (also: biotinylated, site not given here) [CLPTM1 peptide fragment of SEQ ID NO: 14]"
answer_label = "Condition not met"


Report whether reported ELISA OD450 is lower than 0.02 OD450 (strictly) for WQVIKGVLFRIFIIWAISSWG (also: biotinylated, site not given here) [CLPTM1 peptide fragment of SEQ ID NO: 29]
Condition met

Report whether reported ELISA OD450 is lower than 0.02 OD450 (strictly) for QNPPAQPAPNAWQVIKGVLFG (also: biotinylated, site not given here) [CLPTM1 peptide fragment of SEQ ID NO: 10]
Condition not met

Report whether reported ELISA OD450 is lower than 0.02 OD450 (strictly) for ARSAVVAAGGGSSGQVTSNGSIGRDPPAETQPQNPPAQPA (also: biotinylated, site not given here, also called peptide 27; GT3) [CLPTM1 peptide fragment of SEQ ID NO: 34]
Condition not met

Report whether reported ELISA OD450 is lower than 0.02 OD450 (strictly) for SGQVTSNGSIGRDPPAETQPG (also: biotinylated, site not given here) [CLPTM1 peptide fragment of SEQ ID NO: 9]
Condition met

Report whether reported ELISA OD450 is lower than 0.02 OD450 (strictly) for VSGDYYPIIYFNDYWNLQKDYYPINESLASLPLRVSFC (also: biotinylated, site not given here, also called peptide 31; GT7) [CLPTM1 peptide fragment of SEQ ID NO: 38]
Condition not met

Report whether reported ELISA OD450 is lower than 0.02 OD450 (strictly) for GDYYPIIYFNDYWNLQKDYYG (also: biotinylated, site not given here, also called peptide 21) [CLPTM1 peptide fragment of SEQ ID NO: 28]
Condition not met

Report whether reported ELISA OD450 is lower than 0.02 OD450 (strictly) for KALYRRLATVHMSRMINKYKG (also: biotinylated, site not given here, also called peptide 10) [CLPTM1 peptide fragment of SEQ ID NO: 17]
Condition not met

Report whether reported ELISA OD450 is lower than 0.02 OD450 (strictly) for ITINIVDDHTPWVKGSVPPPG (also: biotinylated, site not given here) [CLPTM1 peptide fragment of SEQ ID NO: 20]
Condition met
